Biological target: T1, MPDZ_12, O75970
T1 sequence (O75970 1857-1958, limits assumed, looked up): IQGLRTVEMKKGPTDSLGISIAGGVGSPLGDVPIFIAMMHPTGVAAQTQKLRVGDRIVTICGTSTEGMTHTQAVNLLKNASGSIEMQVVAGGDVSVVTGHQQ
Assay: holdup assay
Set-up: key: below the threshold = too weak to quantify, mostly under pKd 3.1 to 4
Conditions: plain residues with an end cap or a label only (N-terminal biotin on a linker: ado-ado)
ENDPOINT_LABEL: pKd

>>> test_value("PLSPEQPTKL [TRIM50, Q86XT4]")
"below the threshold"
>>> test_value("IKAIVDLTGL [TRAF2, Q12933]")
"below the threshold"
>>> test_value("QGLAERISVL [PRKD2, Q9BZL6]")
"below the threshold"
>>> test_value("PAPSSGKDYV [CLDN1, O95832]")
"below the threshold"
>>> test_value("SKSNFGSEPL [KIF17, Q9P2E2]")
"below the threshold"
>>> test_value("DTTVPESEDL [MYOZ2, Q9NPC6]")
"below the threshold"
>>> test_value("PDGQCTVTEV [RNF146, Q9NTX7]")
"below the threshold"
>>> test_value("RKPKPSSSCC [RAB9A, P51151]")
"below the threshold"
>>> test_value("HSGYRLNDYV [CLDN14, O95500]")
"below the threshold"
>>> test_value("SAAKVLTSMC [GHRHR, Q02643]")
"below the threshold"
>>> test_value("QPCFNKLFPL [LPXN, O60711]")
"below the threshold"
>>> test_value("AKPSRISTVV [IQSEC2, Q5JU85]")
3.49
>>> test_value("SSALYGESDL [ACTN2, P35609]")
"below the threshold"
>>> test_value("TPPAAKKSRI [BAZ1A, Q9NRL2]")
"below the threshold"
>>> test_value("RRLPGKETMA [GRIK2, Q13002]")
"below the threshold"
>>> test_value("YYKRPVQEWV [MMP24, Q9Y5R2]")
4.39
>>> test_value("LPHGHSTTRV [NLGN4X, Q8N0W4]")
"below the threshold"
>>> test_value("TSQESEDTYL [TBC1D10A, Q9BXI6]")
"below the threshold"
>>> test_value("IPLDGETEEL [MYOZ1, Q9NP98]")
"below the threshold"
>>> test_value("QGPVETESVV [SLC45A4, Q5BKX6]")
3.5
